molecular target: TSLP, Q969D9; assay: Kd (SPR)
Listed below: Kd values for each entry.
Give just the number in nM; leave the unit off.

The following binders have reported results that may help.
unnamed (protein) chain 1: QMQLVESGGGVVQPGRSLRLSCAASGFTFRTYGMHWVRQAPGKGLEWVAVIWYDGSNKHYADSVKGRFTITRDNSKNTLNLQMNSLRAEDTAVYYCARSPRYDDYWEAFDVWGQGTMVTVSS chain 2: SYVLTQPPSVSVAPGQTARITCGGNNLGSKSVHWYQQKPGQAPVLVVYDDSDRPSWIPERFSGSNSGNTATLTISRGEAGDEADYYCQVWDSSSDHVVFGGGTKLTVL	197
unnamed (protein) chain 1: QMQLVESGGGVVQPGRSLRLSCAASGFTFSTFAMHWVRQAPGKGLEWVAVIWYDGSNKHYADSVKGRFTITRDNSKNTLNLQMNSLRAEDTAVYYCARAPRYDEYWEAFDVWGQGTMVTVSS chain 2: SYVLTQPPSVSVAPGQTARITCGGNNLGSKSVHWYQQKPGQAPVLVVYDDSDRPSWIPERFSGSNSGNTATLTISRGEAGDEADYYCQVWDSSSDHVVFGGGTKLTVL	764

--- query ---
Reported Kd, binder unnamed (protein) chain 1: QMQLVESGGGVVQPGRSLRLSCAASGFTFSTYAMHWVRQAPGKGLEWVAVIWYDGSNKHYADSVKGRFTITRDNSKNTLNLQMNSLRAEDTAVYYCARAPRYDEYYEAFDVWGQGTMVTVSS chain 2: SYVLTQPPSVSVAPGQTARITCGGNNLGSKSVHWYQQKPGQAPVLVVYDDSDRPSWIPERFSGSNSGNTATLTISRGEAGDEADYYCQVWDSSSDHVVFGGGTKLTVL : ____
224
